Taken from ChEMBL document CHEMBL4219231.

Test: Thermodynamic solubility of the compound in 0.01 M phosphate buffer at pH 7.4 at 22 degC after 39 hrs by UPLC-DAD-MS analysis
Format: physicochemical
Conditions: read-out: Therm_solubility
experimental_readout: solubility thermodynamic at 39 h (µM)

>>> print(df.to_string())
                                test_smiles  numeric_value
0  C=CC(=O)NCCCC[C@H](NC(=O)Cc1ccccc1)C(=O)N1CCN(c2cccc([N+](=O)[O-])n2)CC1            452

###

Assay: n-octanol-phosphate buffer partition coefficient, log D of compound at pH 7.4 by 19F NMR analysis
Type: physicochemical
experimental_readout: logD

                                 test_smiles  result
 0  C=CC(=O)NCCCC[C@H](NC(=O)Cc1ccc(F)cc1)C(=O)N1CCN(c2cccc(C)n2)CC1    0.36
 1  C=CC(=O)NCCCC[C@H](NC(=O)c1ccc(F)cc1)C(=O)N1CCN(c2cccc(C)n2)CC1    0.28
 2  C=CC(=O)NCCCC[C@H](NC(=O)Cc1ccccc1F)C(=O)N1CCN(c2cccc([N+](=O)[O-])n2)CC1    2.25
 3  C=CC(=O)NCCCC[C@H](NC(=O)Cc1ccc(F)cc1)C(=O)N1CCN(c2ccc([N+](=O)[O-])nc2)CC1    1.85
 4  C=CC(=O)NCCCC[C@H](NC(=O)Cc1ccccc1)C(=O)N1CCN(c2ccc(F)nc2)CC1    1.66
 5  C=CC(=O)NCCCC[C@H](NC(=O)Cc1ccccc1)C(=O)N1CCN(c2cccc(F)n2)CC1     2.1
 6  C=CC(=O)NCCCC[C@H](NC(=O)Cc1ccccc1)C(=O)N1CCN(Cc2ccc(F)cc2)CC1    2.65
 7  C=CC(=O)NCCCC[C@H](NC(=O)Cc1ccccc1)C(=O)N1CCN(C(=O)c2ccc(F)cc2)CC1     1.6
 8  C=CC(=O)NCCCC[C@H](NC(=O)c1ccc(F)cc1)C(=O)N1CCN(c2ccc([N+](=O)[O-])nc2)CC1    2.21
 9  C=CC(=O)NCCCC[C@H](NC(=O)Cc1ccccc1)C(=O)N1CCN(c2ccc(C(F)(F)F)nc2)CC1    2.13
10  C=CC(=O)NCCCC[C@H](NC(=O)Nc1ccc(F)cc1)C(=O)N1CCN(c2cccc(C)n2)CC1    0.47

###

Test: Membrane retention, RM of the compound
Format: physicochemical
experimental_readout: Rm (%)

In [3]: df
Out[3]:
                                 test_smiles  experimental_readout  numeric_value
 0  C=CC(=O)NCCCC[C@H](NC(=O)Cc1ccccc1)C(=O)N1CCN(C(=O)c2ccc(F)cc2)CC1                    Rm             -3
 1  C=CC(=O)NCCCC[C@H](NC(=O)Cc1ccccc1)C(=O)N1CCN(c2cccc(F)n2)CC1                    Rm             14
 2  C=CC(=O)NCCCC[C@H](NC(=O)Cc1ccccc1)C(=O)N1CCN(c2ccncc2)CC1                    Rm             31
 3  C=CC(=O)NCCCC[C@H](NC(=O)Cc1ccccc1)C(=O)N1CCN(c2cccc(C(C)(C)C)n2)CC1                    Rm             69
 4  C=CC(=O)NCCCC[C@H](NC(=O)c1ccc(F)cc1)C(=O)N1CCN(c2ccc([N+](=O)[O-])nc2)CC1                    Rm             12
 5  C=CC(=O)NCCCC[C@H](NC(=O)Cc1ccccc1)C(=O)N1CCN(Cc2ccc(F)cc2)CC1                    Rm             12
 6  C=CC(=O)NCCCC[C@H](NC(=O)Cc1ccccc1F)C(=O)N1CCN(c2cccc(C)n2)CC1                    Rm             21
 7  C=CC(=O)NCCCC[C@H](NC(=O)Cc1ccc(F)cc1)C(=O)N1CCN(c2ccc([N+](=O)[O-])nc2)CC1                    Rm              9
 8  C=CC(=O)NCCCC[C@H](NC(=O)Cc1ccccc1)C(=O)N1CCN(c2ccc(C(F)(F)F)nc2)CC1                    Rm             11
 9  C=CC(=O)NCCCC[C@H](NC(=O)Cc1ccccc1)C(=O)N1CCN(c2cccc(C)n2)CC1                    Rm             -1
10  C=CC(=O)NCCCC[C@H](NC(=O)Cc1cccc(F)c1)C(=O)N1CCN(c2cccc(C)n2)CC1                    Rm             24
11  C=CC(=O)NCCCC[C@H](NC(=O)Cc1ccccc1F)C(=O)N1CCN(c2cccc([N+](=O)[O-])n2)CC1                    Rm             12
12  C=CC(=O)NCCCC[C@H](NC(=O)Cc1ccccc1)C(=O)N1CCN(S(=O)(=O)c2cccc3c(N(C)C)cccc23)CC1                    Rm             38
13  C=CC(=O)NCCCC[C@H](NC(=O)Nc1ccc(F)cc1)C(=O)N1CCN(c2cccc(C)n2)CC1                    Rm             11
14  C=CC(=O)NCCCC[C@H](NC(=O)Cc1ccccc1)C(=O)N1CCN(c2cccc(-c3ccccc3)n2)CC1                    Rm             64
15  C=CC(=O)NCCCC[C@H](NC(=O)Cc1ccc(F)cc1)C(=O)N1CCN(c2cccc(C)n2)CC1                    Rm             10
16  C=CC(=O)NCCCC[C@H](NC(=O)c1ccc(F)cc1)C(=O)N1CCN(c2cccc(C)n2)CC1                    Rm             16
17  C=CC(=O)NCCCC[C@H](NC(=O)Cc1ccccc1)C(=O)N1CCN(c2cccc([N+](=O)[O-])n2)CC1                    Rm             10
18  C=CC(=O)NCCCC[C@H](NC(=O)Cc1ccccc1)C(=O)N1CCN(c2ccc(F)nc2)CC1                    Rm              4

###

Molecular target: Protein-glutamine gamma-glutamyltransferase (Homo sapiens, UniProt P21980)
Sequence (P21980 whole entry): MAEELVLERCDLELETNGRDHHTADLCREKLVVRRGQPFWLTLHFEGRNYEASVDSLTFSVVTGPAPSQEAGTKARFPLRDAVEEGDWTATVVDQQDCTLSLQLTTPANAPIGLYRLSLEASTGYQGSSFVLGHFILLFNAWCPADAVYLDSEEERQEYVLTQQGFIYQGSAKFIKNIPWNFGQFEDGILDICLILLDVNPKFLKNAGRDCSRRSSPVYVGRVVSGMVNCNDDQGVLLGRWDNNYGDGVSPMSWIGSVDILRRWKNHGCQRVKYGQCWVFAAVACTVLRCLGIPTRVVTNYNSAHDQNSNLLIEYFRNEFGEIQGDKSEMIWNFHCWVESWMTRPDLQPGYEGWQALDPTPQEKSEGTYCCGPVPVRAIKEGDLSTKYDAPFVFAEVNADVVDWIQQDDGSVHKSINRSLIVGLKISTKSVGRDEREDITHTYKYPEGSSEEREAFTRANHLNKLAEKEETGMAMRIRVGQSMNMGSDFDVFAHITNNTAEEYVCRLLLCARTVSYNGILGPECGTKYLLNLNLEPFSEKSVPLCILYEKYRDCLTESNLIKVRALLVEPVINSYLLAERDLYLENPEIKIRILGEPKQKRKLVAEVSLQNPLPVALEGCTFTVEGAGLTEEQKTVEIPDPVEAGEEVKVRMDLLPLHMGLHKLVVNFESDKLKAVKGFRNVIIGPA
Assay: Reversible inhibition of human TGase 2 using Z-Glu(HMC)-Gly-OH as substrate measured at 20 secs interval over 900 secs by fluorimetric assay
experimental_readout: Ki (µM)

In [3]: df
Out[3]:
                                test_smiles  unit_of_measurement  numeric_value
0  C=CC(=O)NCCCC[C@H](NC(=O)Cc1ccccc1)C(=O)N1CCN(c2ccccn2)CC1                   µM           8.42
1  C=CC(=O)NCCCC[C@H](NC(=O)Cc1ccccc1)C(=O)N1CCN(c2cccc(OCCF)n2)CC1                   µM           7.32
2  C=CC(=O)NCCCC[C@H](NC(=O)Cc1ccccc1)C(=O)N1CCN(c2cccc([N+](=O)[O-])n2)CC1                   µM           2.26
3  C=CC(=O)NCCCC[C@H](NC(=O)Cc1ccccc1)C(=O)N1CCN(c2cccc(C(C)(C)C)n2)CC1                   µM            3.5
4  CCC(=O)NCCCC[C@H](NC(=O)Cc1ccccc1)C(=O)N1CCN(c2cccc(C)n2)CC1                   µM           64.3

###

Assay: in vitro
Settings: PAMPA
Description: Effective permeability of the compound by PAMPA assay
Papp listing for selected compounds.
experimental_readout: Papp (×10⁻⁶ cm/s)

In [3]: df
Out[3]:
                                   compound  numeric_value
0  C=CC(=O)NCCCC[C@H](NC(=O)c1ccc(F)cc1)C(=O)N1CCN(c2cccc(C)n2)CC1           12.7
1  COCCc1ccc(OCC(O)CNC(C)C)cc1 (stereo not drawn)           4.04
2  C=CC(=O)NCCCC[C@H](NC(=O)Cc1ccccc1)C(=O)N1CCN(c2cccc(C)n2)CC1           8.77
